- measurement target: NDM-1 (Klebsiella pneumoniae)
- Sequence (C7C422 whole entry, looked up, species assumed): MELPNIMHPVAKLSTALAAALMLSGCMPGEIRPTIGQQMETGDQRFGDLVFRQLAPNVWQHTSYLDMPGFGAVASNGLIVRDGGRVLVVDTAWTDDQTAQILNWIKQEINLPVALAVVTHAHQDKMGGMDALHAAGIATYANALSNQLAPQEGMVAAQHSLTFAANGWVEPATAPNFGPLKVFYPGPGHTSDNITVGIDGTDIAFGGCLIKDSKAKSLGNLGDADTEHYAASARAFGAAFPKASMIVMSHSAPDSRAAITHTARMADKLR
- protocol description: biochemical
- Type: biochemical
- conditions: CCF2-FA substrate, 2 hours at 25° C; read-out: NDM-1 IC50
parameter measured: pIC50
pIC50 field: float, defined as -log10 of concentration (mol/L).

Print NDM-1 (Klebsiella pneumoniae) pIC50 for Nc1nc2c(-c3ccc(S(=O)(=O)[C@H]4C[C@H](N)C4)c(S(N)(=O)=O)c3-c3nn[nH]n3)cccc2s1 .
9.97

Print NDM-1 (Klebsiella pneumoniae) pIC50 for N=C(N)c1nc2c(-c3ccc(S(=O)(=O)C4CNC4)c(S(N)(=O)=O)c3-c3nnn[nH]3)cccc2s1 .
9.46

Print NDM-1 (Klebsiella pneumoniae) pIC50 for N[C@H](CO)CS(=O)(=O)c1ccc(-c2cccc3[nH]cnc23)c(-c2nn[nH]n2)c1S(N)(=O)=O .
9.57

Print NDM-1 (Klebsiella pneumoniae) pIC50 for Nc1ncccc1-c1ccc(S(=O)(=O)C2CNC2)c(S(N)(=O)=O)c1-c1nn[nH]n1 .
9.19
